The measured values listed here are drawn from patent US9669028B2.

pIC50: −log10 of the molar value.
Quick record: pIC50, LRRK2 (Homo sapiens (Human)).
experimental_endpoint: pIC50

> print(dat)
                                   molecule  experimental.endpoint   value
1  Cc1n[nH]c2ncc(-c3cncc(NC4CCN(C)CC4)n3)cc12                  pIC50  > 6.30
2  Cc1n[nH]c2ncc(-c3cccc(NC4CCN(C)CC4)n3)cc12                  pIC50  < 6.30
3  Cc1n[nH]c2ncc(NC3CCCN(Cc4ccc(Cl)cc4)C3)cc12 (stereo not drawn)                  pIC50  < 6.30
4     COc1ccccc1-c1n[nH]c2ncc(-c3ccsc3)cc12                  pIC50  > 6.30
5          Cc1n[nH]c2ncc(-c3cncc(Cl)n3)cc12                  pIC50  < 6.00
6  Cc1n[nH]c2ncc(-c3cncc(N(C)CC4CCOCC4)n3)cc12                  pIC50  > 6.30
7  Cc1n[nH]c2ncc(-c3cncc(OCCN4CCN(C)CC4)n3)cc12                  pIC50  < 6.30
8  Cc1n[nH]c2ncc(-c3cncc(NC(=O)C4CCN(C)CC4)n3)cc12                  pIC50  < 6.30
9  O=C(c1cncc(-c2cnc3[nH]ccc3c2)n1)N1CCCCC1                  pIC50  < 6.30

* * *

measurement_target: recombinant human MAO-B (Homo sapiens (Human))
Sequence (P27338 whole entry): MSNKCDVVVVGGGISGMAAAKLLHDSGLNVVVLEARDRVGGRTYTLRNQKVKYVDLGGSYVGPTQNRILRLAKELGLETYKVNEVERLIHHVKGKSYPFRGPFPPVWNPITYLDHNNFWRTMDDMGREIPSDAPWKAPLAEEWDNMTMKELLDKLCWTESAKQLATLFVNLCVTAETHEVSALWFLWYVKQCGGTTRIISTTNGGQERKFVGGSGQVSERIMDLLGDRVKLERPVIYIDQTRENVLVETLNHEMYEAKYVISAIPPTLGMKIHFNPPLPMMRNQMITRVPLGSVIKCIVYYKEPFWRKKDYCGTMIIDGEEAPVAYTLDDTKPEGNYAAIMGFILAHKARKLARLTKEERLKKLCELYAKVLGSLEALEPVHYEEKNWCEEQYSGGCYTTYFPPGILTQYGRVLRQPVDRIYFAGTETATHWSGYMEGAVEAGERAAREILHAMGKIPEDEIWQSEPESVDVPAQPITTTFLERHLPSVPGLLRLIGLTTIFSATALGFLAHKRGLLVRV
experiment_summary: Inhibition of monoamine oxidase MAO-B
reported_conditions: kynuramine 50 μM, 25 min at 37° C.
pIC50: −log10 of the molar value.
pIC50 values, listed per item
experimental_endpoint: pIC50

> print(dat)
                                   compound  inequality.sign  value
1  c1cc2cc(-c3cncc(N4CCOCC4)n3)cnc2[nH]1 [Compound 148]                =   5.06
2  Cc1n[nH]c2ncc(-c3cncc(NC4CCN(C)CC4)n3)cc12 [Compound 13]                <   4.00

* * *

measurement_target: LRRK2 G2019S (Homo sapiens (Human), UniProt Q5S007, G2019S)
Sequence (Q5S007 970-2527 G2019S): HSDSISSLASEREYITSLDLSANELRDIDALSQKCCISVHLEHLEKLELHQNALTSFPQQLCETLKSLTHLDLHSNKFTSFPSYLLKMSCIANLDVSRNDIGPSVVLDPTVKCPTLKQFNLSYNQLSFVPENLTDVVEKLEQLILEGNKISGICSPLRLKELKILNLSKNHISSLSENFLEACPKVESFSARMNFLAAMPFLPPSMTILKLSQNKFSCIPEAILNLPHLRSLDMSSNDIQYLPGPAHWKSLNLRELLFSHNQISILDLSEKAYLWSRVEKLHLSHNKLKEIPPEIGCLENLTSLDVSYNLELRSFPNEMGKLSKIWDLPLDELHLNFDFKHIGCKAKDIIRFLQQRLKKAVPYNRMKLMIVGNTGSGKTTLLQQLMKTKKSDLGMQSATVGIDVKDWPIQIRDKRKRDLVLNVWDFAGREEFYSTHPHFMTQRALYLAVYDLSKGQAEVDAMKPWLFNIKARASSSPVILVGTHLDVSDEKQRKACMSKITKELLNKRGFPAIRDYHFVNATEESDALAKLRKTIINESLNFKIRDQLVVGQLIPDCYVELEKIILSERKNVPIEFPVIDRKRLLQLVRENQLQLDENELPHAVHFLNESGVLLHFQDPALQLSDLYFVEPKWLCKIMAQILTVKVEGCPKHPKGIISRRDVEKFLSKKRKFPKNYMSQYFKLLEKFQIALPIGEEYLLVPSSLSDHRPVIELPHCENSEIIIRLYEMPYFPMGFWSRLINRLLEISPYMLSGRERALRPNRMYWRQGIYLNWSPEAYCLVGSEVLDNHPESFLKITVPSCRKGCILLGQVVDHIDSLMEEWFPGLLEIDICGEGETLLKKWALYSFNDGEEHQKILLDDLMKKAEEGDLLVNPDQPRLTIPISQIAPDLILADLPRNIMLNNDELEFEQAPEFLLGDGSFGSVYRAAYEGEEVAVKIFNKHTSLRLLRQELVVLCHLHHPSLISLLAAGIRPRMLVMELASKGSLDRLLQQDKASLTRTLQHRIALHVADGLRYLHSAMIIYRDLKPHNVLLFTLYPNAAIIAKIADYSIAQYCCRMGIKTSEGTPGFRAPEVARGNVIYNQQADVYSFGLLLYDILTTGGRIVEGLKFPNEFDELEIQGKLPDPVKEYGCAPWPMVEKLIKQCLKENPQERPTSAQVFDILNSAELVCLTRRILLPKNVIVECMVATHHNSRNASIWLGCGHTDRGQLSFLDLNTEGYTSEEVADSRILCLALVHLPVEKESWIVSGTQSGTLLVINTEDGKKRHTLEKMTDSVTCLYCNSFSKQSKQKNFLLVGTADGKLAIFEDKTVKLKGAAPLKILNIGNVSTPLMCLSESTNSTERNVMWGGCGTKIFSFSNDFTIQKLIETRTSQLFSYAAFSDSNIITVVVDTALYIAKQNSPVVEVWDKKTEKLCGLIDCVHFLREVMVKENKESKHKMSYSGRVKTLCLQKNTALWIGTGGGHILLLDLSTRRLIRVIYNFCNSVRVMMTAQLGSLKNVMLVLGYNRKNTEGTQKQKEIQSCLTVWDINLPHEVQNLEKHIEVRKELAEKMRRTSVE
experiment_summary: LRRK2 G2019S Kinase Assay
Type: biochemical
reported_conditions: 10 μM ATP
pIC50: −log10 of the molar value.
experimental_endpoint: pIC50

> print(dat)
                            smiles.notation                        measurement.target   value
1  Cc1n[nH]c2ncc(-c3cncc(OCCN4CCN(C)CC4)n3)cc12  LRRK2 G2019S (Homo sapiens (Human), UniProt Q5S007, G2019S)  < 6.30
2  Cc1n[nH]c2ncc(-c3cncc(NC4CCN(CCO)CC4)n3)cc12  LRRK2 G2019S (Homo sapiens (Human), UniProt Q5S007, G2019S)  > 6.30
3   CN1CCC(Nc2cncc(-c3cnc4[nH]ccc4c3)n2)CC1  LRRK2 G2019S (Homo sapiens (Human), UniProt Q5S007, G2019S)  > 6.30
4  Cc1n[nH]c2ncc(-c3ccc(N4CCN(C)CC4)cc3)cc12  LRRK2 G2019S (Homo sapiens (Human), UniProt Q5S007, G2019S)  < 6.00
5               Cn1cc(-c2cnc3[nH]ncc3c2)cn1  LRRK2 G2019S (Homo sapiens (Human), UniProt Q5S007, G2019S)  < 6.00
